Biological target: PIK3CB;PIK3CG;PIK3CD;PIK3CA (human) (UniProt P48736)
Experiment: Inhibition of PIK3CA/PIK3CB/PIK3CD/PIK3CG Kinase Activity
READOUT LABEL: IC50 (nM)
Please reply with the bare figure in nM and do not write the unit itself.

Examples with their reported IC50 follow.
{"COMPOUND STRUCTURE": "CN(C)c1cc(C(=O)O)nc2c(-c3cc(F)ccc3O)nc(N3CCOCC3)nc12", "READING UNIT": "nM", "IC50": 66}
{"COMPOUND STRUCTURE": "COc1cccc(-c2nc(N3CCOCC3)nc3ccc(C(=O)O)nc23)c1", "READING UNIT": "nM", "IC50": 4490}
{"COMPOUND STRUCTURE": "CS(=O)(=O)N1CCN(c2cc(C(=O)O)nc3c(-c4cccc(O)c4)nc(N4CCOCC4)nc23)CC1", "READING UNIT": "nM", "IC50": 15}
{"COMPOUND STRUCTURE": "COCCNc1cc(C(=O)O)nc2c(-c3cccc(COC)c3)nc(N3CCOCC3)nc12", "READING UNIT": "nM", "IC50": 1830}
{"COMPOUND STRUCTURE": "CS(=O)(=O)c1cc(C(=O)O)nc2c(-c3ccc(O)c(F)c3)nc(N3CCOCC3)nc12", "READING UNIT": "nM", "IC50": 335}
{"COMPOUND STRUCTURE": "CNc1cc(C(=O)O)nc2c(-c3cc(F)ccc3O)nc(N3CCOCC3)nc12", "READING UNIT": "nM", "IC50": 304}
{"COMPOUND STRUCTURE": "O=C(O)c1cc(Cl)c2nc(N3CCOCC3)nc(-c3ccccc3)c2n1", "READING UNIT": "nM", "IC50": 678}
{"COMPOUND STRUCTURE": "CN(C)c1cc(C(=O)O)nc2c(-c3ccc(F)c(CO)c3)nc(N3CCOCC3)nc12", "READING UNIT": "nM", "IC50": 329}

(Q) Give the reported IC50 for COCCN(C)c1cc(C(=O)O)nc2c(-c3cccc(F)c3O)nc(N3CCOCC3)nc12 (system: PIK3CB;PIK3CG;PIK3CD;PIK3CA (human) (UniProt P48736)).
(A) 9

----------
Molecular target: PIK3CB;PIK3CG;PIK3CD;PIK3CA (human)
Test: Inhibition of PIK3CA/PIK3CB/PIK3CD/PIK3CG Kinase Activity
So basically: is IC50 under 80 nM? Then Y. Not under? Then N.

{"COMPOUND STRUCTURE": "COCCOc1cc(C(=O)O)nc2c(-c3ccc(O)cc3)nc(N3CCOCC3)nc12", "TARGET SYSTEM": "PIK3CB;PIK3CG;PIK3CD;PIK3CA (human)", "ASSIGNED LABEL": "N"}
{"COMPOUND STRUCTURE": "O=C(O)c1cc(NCCO)c2nc(N3CCOCC3)nc(-c3cccc(O)c3)c2n1", "TARGET SYSTEM": "PIK3CB;PIK3CG;PIK3CD;PIK3CA (human)", "ASSIGNED LABEL": "Y"}

(Q) Please state whether IC50 is below 80 nM for O=C(O)c1ccc2nc(N3CCOCC3)nc(-c3cccc(O)c3)c2n1
(A) Y

(Q) Does this molecule meet the criterion IC50 < 80 nM? COCCOc1cc(C(=O)O)nc2c(-c3cccc(O)c3)nc(N3CCOCC3)nc12
(A) N

(Q) Determine if CS(=O)(=O)c1cc(C(=O)O)nc2c(-c3cc(F)ccc3O)nc(N3CCOCC3)nc12 shows IC50 strictly lower than 80 nM.
(A) N

(Q) Strictly below 80 nM: is that where IC50 of CN(C)CCN(C)c1cc(C(=O)O)nc2c(-c3cc(F)ccc3O)nc(N3CCOCC3)nc12 sits?
(A) N

(Q) Please check: IC50 for COCCNc1cc(C(=O)O)nc2c(-c3cccc(F)c3O)nc(N3CCOCC3)nc12 , strictly under 80 nM or not?
(A) Y

(Q) # strict comparison: is reported IC50 < 80 nM? input = CS(=O)(=O)N1CCN(c2cc(C(=O)O)nc3c(-c4ccccc4)nc(N4CCOCC4)nc23)CC1
(A) Y

(Q) Is IC50 of O=C(O)c1cc(NCCO)c2nc(N3CCOCC3)nc(-c3ccc(O)cc3)c2n1 strictly below 80 nM?
(A) N

(Q) is_below(IC50, 80 nM) for CN(CCO)c1cc(C(=O)O)nc2c(-c3ccc(F)c(CO)c3)nc(N3CCOCC3)nc12 ?
(A) N

(Q) Please check: IC50 for COCCNc1cc(C(=O)O)nc2c(-c3cccc4[nH]ccc34)nc(N3CCOCC3)nc12 , strictly under 80 nM or not?
(A) N

(Q) Find out if reported IC50 for CN(C)c1cc(C(=O)O)nc2c(-c3ccc(O)cc3)nc(N3CCOCC3)nc12 is less than 80 nM
(A) N

(Q) # strict comparison: is reported IC50 < 80 nM? input = CN(C)c1cc(C(=O)O)nc2c(-c3ccc(F)cc3O)nc(N3CCOCC3)nc12
(A) N

(Q) Just wondering, is IC50 of CNc1cc(C(=O)O)nc2c(-c3ccc(F)cc3O)nc(N3CCOCC3)nc12 below 80 nM?
(A) N

(Q) Does the reported IC50 of the following molecule sit strictly below 80 nM? COCCN(C)c1cc(C(=O)O)nc2c(-c3cccc(CO)c3)nc(N3CCOCC3)nc12
(A) Y

(Q) I'd appreciate it if you could check whether O=C(O)c1cc(Cl)c2nc(N3CCOCC3)nc(-c3cccc(O)c3)c2n1 has IC50 smaller than 80 nM.
(A) N

(Q) Criterion: IC50 strictly below 80 nM. Is it met by O=C(O)c1cc(NCCO)c2nc(N3CCOCC3)nc(-c3cc(O)cc(F)c3)c2n1 ?
(A) Y
